study-system: Islet amyloid precursor polypeptide, IAPP (Homo sapiens)
Construct: Purified synthetic peptides corresponding to IAPP (Bachem, Weil am Rhein, Germany); purchased Bachem, Weil am Rhein, Germany; host or cells: synthetic peptide
assay-overview: In vitro assembly assay (thioflavin T fluorescence, with or without air-water interface), IAPP
Assay type: biochemical
conditions: elongation rate; ratio of IC50 with air-water interface (+AWI) to IC50 without (−AWI); IAPP at 4 μM
readout-label: Ratio IAPP IC50 (μm) +AWI/−AWI elongation

{"columns": ["smiles-str", "measured"],
 "data": [
  ["Cc1cc(C)c2ccc(/C=C/c3cc(C(=O)O)ccc3O)nc2c1O", 11],
  ["Cc1cc(C)c2ccc(/C=C/c3cccc(O)c3)nc2c1O", 31],
  ["Cc1cc(C)c2ccc(/C=C/c3ccc(Br)o3)nc2c1O", 3],
  ["Cc1cc(C)c2ccc(/C=C/c3ccccc3O)nc2c1O", 3],
  ["Cc1cc(C)c2ccc(/C=C/c3cccnc3)nc2c1O", 12],
  ["Cc1cc(C)c2ccc(/C=C/C3CCCCC3)nc2c1O", 32],
  ["Cc1cc(C)c2ccc(/C=C/c3ccc(O)c(O)c3)nc2c1O", 16]
]}

====

study-system: Islet amyloid precursor polypeptide, IAPP (Homo sapiens)
Construct: Purified synthetic peptides corresponding to IAPP (Bachem, Weil am Rhein, Germany); purchased Bachem, Weil am Rhein, Germany; host or cells: synthetic peptide
Sequence (P10997 34-70 limits assumed): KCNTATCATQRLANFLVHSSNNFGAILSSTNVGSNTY
assay-overview: In vitro assembly assay (thioflavin T fluorescence, with or without air-water interface), IAPP
Type: biochemical
conditions: lag phase; ratio of IC50 with air-water interface (+AWI) to IC50 without (−AWI); IAPP at 4 μM

{"columns": ["smiles-str", "Ratio IAPP IC50 (μm) +AWI/−AWI Lag phase"],
 "data": [
  ["Cc1cc(C)c2ccc(/C=C/c3ccccc3[N+](=O)[O-])nc2c1O", 11],
  ["Cc1cc(C)c2ccc(/C=C/c3ccccc3C#N)nc2c1O", 32],
  ["Cc1cc(C)c2ccc(/C=C/c3ccc(Br)o3)nc2c1O", 1],
  ["Cc1cc(C)c2ccc(/C=C/c3ccccc3)nc2c1O", 3],
  ["Cc1cc(C)c2ccc(/C=C/c3cccnc3C)nc2c1O", 1],
  ["Cc1cc(C)c2ccc(/C=C/c3cc(C(=O)O)ccc3O)nc2c1O", 8]
]}

====

study-system: Islet amyloid precursor polypeptide, IAPP (Homo sapiens)
Construct: Purified synthetic peptides corresponding to IAPP (Bachem, Weil am Rhein, Germany); purchased Bachem, Weil am Rhein, Germany; host or cells: synthetic peptide
Sequence (P10997 34-70 limits assumed): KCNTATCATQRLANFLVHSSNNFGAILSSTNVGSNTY
assay-overview: In vitro assembly assay (thioflavin T fluorescence, with or without air-water interface), IAPP
Assay type: biochemical
conditions: elongation rate; ratio of IC50 with air-water interface (+AWI) to IC50 without (−AWI); IAPP at 4 μM
The reader will find reported Ratio IAPP IC50 (μm) +AWI/−AWI elongation values listed item by item below.
readout-label: Ratio IAPP IC50 (μm) +AWI/−AWI elongation

{"columns": ["smiles-str", "study-system", "censoring-sign", "measured"],
 "data": [
  ["Cc1cc(C)c2ccc(/C=C/c3cccc([N+](=O)[O-])c3)nc2c1O", "Islet amyloid precursor polypeptide, IAPP (Homo sapiens)", "=", 21],
  ["Cc1cc(C)c2ccc(/C=C/c3cccc(C#N)c3)nc2c1O", "Islet amyloid precursor polypeptide, IAPP (Homo sapiens)", "=", 21],
  ["COc1ccc(/C=C/c2ccc3c(C)cc(C)c(O)c3n2)cn1", "Islet amyloid precursor polypeptide, IAPP (Homo sapiens)", "=", 1],
  ["Cc1cc(C)c2ccc(/C=C/c3cccnc3Cl)nc2c1O", "Islet amyloid precursor polypeptide, IAPP (Homo sapiens)", "=", 1],
  ["Cc1cc(C)c2ccc(/C=C/c3cccnc3N3CCNCC3)nc2c1O", "Islet amyloid precursor polypeptide, IAPP (Homo sapiens)", "=", 5],
  ["Cc1cc(C)c2ccc(/C=C/c3ccc4c(c3)OCO4)nc2c1O", "Islet amyloid precursor polypeptide, IAPP (Homo sapiens)", "=", 11],
  ["Cc1cc(C)c2ccc(/C=C/c3cccnc3N)nc2c1O", "Islet amyloid precursor polypeptide, IAPP (Homo sapiens)", ">", 1],
  ["Cc1ccc(/C=C/c2ccc3c(C)cc(C)c(O)c3n2)cn1", "Islet amyloid precursor polypeptide, IAPP (Homo sapiens)", "=", 1],
  ["Cc1cc(C)c2ccc(/C=C/c3ccccc3)nc2c1O", "Islet amyloid precursor polypeptide, IAPP (Homo sapiens)", "=", 4]
]}
